System: NCI-H460 lung
Assay: NCI tumour cell line growth inhibition, 48 h

{"columns": ["COMPOUND", "RELATION OPERATOR", "TGI [µM]"],
 "data": [
  ["Cc1nn(C)c2c1C(=O)N(C)CC(=O)N2C", ">", 100],
  ["c1ccc2c(c1)C(=Nc1ccc(N=C3c4ccccc4-c4ccccc43)cc1)c1ccccc1-2", ">", 100],
  ["CC[C@@]1(O)C(=O)OCc2c1cc1n(c2=O)Cc2c-1nc1ccccc1c2/C=N\\NC(=O)C(C)N (some centres undefined)", "=", 4.47],
  ["CC1=C(C(=O)Nc2ccccc2C)C(c2ccc(C3C(C(=O)Nc4ccccc4C)=CNC=C3C(=O)Nc3ccccc3C)cc2)C(C(=O)Nc2ccccc2C)=C(C)N1", "=", 48],
  ["C/C(=N/N)c1ccc2[nH]c3c(C)cc([N+](=O)[O-])c(C)c3c2c1", "=", 72.4],
  ["Cc1nn(-c2ccc(Br)cc2)c(C)c1CC(=O)c1cc(O)ccc1O", "=", 19.3],
  ["O=C1C[C@H]2[C@H](c3ccc(Br)cc3)[C@H]3C(=O)c4ccccc4NC(=O)[C@@H]3[C@@]2(O)c2ccccc2N1", ">", 100],
  ["COc1cc2c3c(n(CCCCl)c(=O)c2cc1OC)-c1ccc(C#N)cc1C3=O", ">", 100],
  ["N#CC1=C(c2ccccc2)C(O)(c2ccccc2)NC1=O (centres undefined)", ">", 100]
]}

----------
Tested on: UACC-62 melanoma
Experiment: NCI tumour cell line growth inhibition, 48 h
// reported TGI for each item listed

{"columns": ["COMPOUND", "TGI"],
 "data": [
  ["COc1ccc(/C=C/C(=O)c2ccc(Nc3ccnc4cc(Cl)ccc34)cc2)cc1", "> 100 µM"],
  ["COc1cc(C=O)c(-c2cc3c(cc2C=O)OCO3)c(OC)c1OC", "> 290 µM"],
  ["Cc1nc2c(ncn2CCO)c(=O)[nH]1", "> 100 µM"],
  ["NC[C@@](O)(c1ccc(Cl)cc1)c1ccc(-c2cn[nH]c2)cc1", "> 10 µM"],
  ["COc1cc([C@@H]2c3cc4c(c(O)c3C[C@H]3COC(=O)[C@@H]32)OCO4)cc(OC)c1O", "> 200 µM"],
  ["C=C(CN1CCN(c2cccc(F)c2)CC1)c1ccc(C(=O)Nc2ccccc2N)cc1", "63.5 µM"],
  ["O=CC1(C2(C=O)c3ccccc3-c3ccccc32)c2ccccc2-c2ccccc21", "6.25 µM"],
  ["O=C(CSc1nnc(-c2ccc(N=Cc3ccc(Cl)cc3)cc2)o1)Nc1cccc(Cl)c1", "> 100 µM"],
  ["O=C(CCl)Nc1ccc2c(c1)C(=O)c1ccc(NC(=O)CCl)cc1C2=O", "0.99 µM"],
  ["O=[N+]([O-])c1ccc(-c2cn(-c3ccc(Cl)cc3)cn2)cc1", "> 100 µM"],
  ["Cc1nc2cc(N)c(Cl)cc2[nH]1", "> 100 µM"],
  ["CC(=O)NC(CCCCNC(=O)N(C)N=O)C(=O)NCc1ccccc1 (configuration not stated)", "> 100 µM"],
  ["Cc1ccc(C(=O)NC(C)(C)C)cc1N=NN(C)C", "> 100 µM"],
  ["N=c1ccn2c(n1)O[C@@H]1[C@@H](O)[C@H](CO)O[C@@H]12", "> 100 µM"],
  ["Oc1cc2ccccc2cc1-c1n[nH]c(=S)n1-c1ccc(Cl)cc1", "28.8 µM"],
  ["O=C(O)/C=C\\C(=O)Nc1ccc2c(c1)C(=O)c1cc(F)ccc1-2", "> 100 µM"],
  ["O=C(N/C(=C\\c1ccccc1)C1Nc2ccccc2C(=O)O1)c1ccccc1 (configuration not stated)", "> 100 µM"],
  ["O=C([O-])c1ccccc1Nc1ccccc1[O-].[Ni+3].[OH3+].[OH3+].[OH3+]", "> 100 µM"],
  ["CCCN1CCN(c2ccc3nc(-c4ccc5nc(-c6ccc(OCC)c(OCC)c6)[nH]c5c4)[nH]c3c2)CC1", "1.87 µM"],
  ["CCN(CC)c1nc(N(C)C)c2cc(OC)ccc2n1", "> 100 µM"],
  ["CCC(/C(=N\\Nc1c(Cl)cc(Cl)cc1Cl)c1ccccc1)n1ccnc1C (configuration not stated)", "36.7 µM"],
  ["C[n+]1ccc(-c2c3nc(c(-c4ccc5c(ccc[n+]5C)c4)c4ccc([nH]4)c(-c4cc[n+](C)cc4)c4nc(c(-c5ccc6c(ccc[n+]6C)c5)c5ccc2[nH]5)C=C4)C=C3)cc1", "> 50 µM"],
  ["Oc1cc2c(cc1O)-c1[nH]ncc1CC2", "90.4 µM"],
  ["NC(CCCCNC(=O)C(Cc1ccccc1)NC(=O)OCc1ccccc1)C(=O)NC(CCCCNC(=O)C(Cc1ccccc1)NC(=O)OCc1ccccc1)C(=O)NC(CCCCNC(=O)C(Cc1ccccc1)NC(=O)OCc1ccccc1)C(=O)NC(CCCCNC(=O)C(Cc1ccccc1)NC(=O)OCc1ccccc1)C(=O)NC(CCCCNC(=O)C(Cc1ccccc1)NC(=O)OCc1ccccc1)C(=O)NC(CCCCNC(=O)C(Cc1ccccc1)NC(=O)OCc1ccccc1)C(=O)O (configuration not stated)", "> 100 µM"],
  ["COc1ccc(C#CCC(OC2OC(CO)C(O)C(O)C2O)C(O)c2ccc(OC)c(OC)c2)cc1OC (configuration not stated)", "> 100 µM"],
  ["CCN(CC)C1=Nc2ccccc2-n2c(C)cnc2C1", "> 100 µM"],
  ["O=C1C(N2C(=O)c3ccccc3C2=O)CN1C(COCc1ccccc1)c1ccc(OCc2ccccc2)cc1 (configuration not stated)", "> 100 µM"]
]}
